The following compounds are shown together with reported IC50 values.
- Test system: HeLa
- assay: Cytotoxicity against TdT-deficient human HeLa cells assessed as growth inhibition after 24 to 48 hrs by MTT assay
- Assay type: cell-based

Sample answers from the record:
>>> print(df.to_string())
                         structure_notation  target_of_assay  experimental_endpoint  observed
0  O=C(/C=C/c1cn(Cc2ccccc2)c2ccccc12)CC(=O)C(=O)O             HeLa                   IC50   > 40 µM
1  O=C(/C=C/c1cc(C(=O)c2ccccc2)cn1Cc1ccc(F)cc1)CC(=O)C(=O)O             HeLa                   IC50   > 40 µM
2  CCCCn1cc(/C=C/C(=O)CC(=O)C(=O)O)c2ccccc21             HeLa                   IC50     30 µM
3  O=C(/C=C/c1cn(CC(=O)N2CCOCC2)c2ccccc12)CC(=O)C(=O)O             HeLa                   IC50   > 40 µM
4  CCCn1cc(/C=C/C(=O)CC(=O)C(=O)O)c2ccccc21             HeLa                   IC50   > 40 µM

Query :: Lab note: need IC50 with HeLa for entry N#Cc1ccc(C(=O)c2c[nH]c(/C=C/C(=O)CC(=O)C(=O)O)c2)cc1 , please look it up.
Result :: > 40 µM

Query :: Lookup: IC50 / HeLa / C=C(C)Cn1cc(/C=C/C(=O)CC(=O)C(=O)O)c2ccccc21
Result :: 40 µM

Query :: Tell me reported IC50 for CCOC(=O)C(=O)CC(=O)/C=C/c1cc(C(=O)c2ccccc2F)c[nH]1 , tested with HeLa.
Result :: > 40 µM

Query :: Form entry - test system: HeLa; read-out: IC50; compound: CCOC(=O)C(=O)CC(=O)/C=C/c1cn(Cc2ccccc2)c2ccccc12
Result :: > 40 µM
